What fold induction at 48 h, 25 µM was measured for each of the following?
Biological target: CYP1A1 (Mus musculus, UniProt P30561)
Sequence (P30561 whole entry): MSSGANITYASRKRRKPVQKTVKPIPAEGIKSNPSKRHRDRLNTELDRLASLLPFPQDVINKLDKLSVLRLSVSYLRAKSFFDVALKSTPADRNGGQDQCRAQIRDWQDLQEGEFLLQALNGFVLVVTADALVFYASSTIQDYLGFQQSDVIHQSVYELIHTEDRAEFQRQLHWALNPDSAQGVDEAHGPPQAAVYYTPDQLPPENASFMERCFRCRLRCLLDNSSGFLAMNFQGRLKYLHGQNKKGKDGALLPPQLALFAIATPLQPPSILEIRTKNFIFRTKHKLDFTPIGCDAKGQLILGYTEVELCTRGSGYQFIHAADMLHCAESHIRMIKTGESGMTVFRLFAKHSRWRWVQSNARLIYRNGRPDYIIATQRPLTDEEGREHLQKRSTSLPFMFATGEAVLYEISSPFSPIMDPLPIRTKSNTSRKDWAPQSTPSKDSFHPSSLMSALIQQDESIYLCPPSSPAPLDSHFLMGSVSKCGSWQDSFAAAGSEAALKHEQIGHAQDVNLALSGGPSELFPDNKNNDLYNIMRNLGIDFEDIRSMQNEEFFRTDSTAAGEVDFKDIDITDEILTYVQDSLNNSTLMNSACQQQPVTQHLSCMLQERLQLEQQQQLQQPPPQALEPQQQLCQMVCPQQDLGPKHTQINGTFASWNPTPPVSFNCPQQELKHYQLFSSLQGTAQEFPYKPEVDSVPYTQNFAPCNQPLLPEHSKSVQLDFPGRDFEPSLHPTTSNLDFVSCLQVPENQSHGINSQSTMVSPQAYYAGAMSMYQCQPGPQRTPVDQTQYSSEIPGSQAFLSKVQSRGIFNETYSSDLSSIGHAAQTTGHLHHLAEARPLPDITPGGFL
Assay: Induction of Ah receptor in mouse Hepa-1c1c7 cells assessed as induction of CYP1A1 activity at 25 uM after 48 hrs by EROD assay relative to control
Type: cell-based
Settings: probe ethoxyresorufin (EROD), read-out: FC
Give the figure by itself; no unit, no explanation.

-- ask Recorded fold induction at 48 h, 25 µM of O=C1/C(=C/c2ccc(Cl)cc2)Oc2cc(O)ccc21 [6-HYDROXY-4'-CHLORO AURONE] , please.
-- reply 1.24

-- ask What do you have for COc1cc(/C=C2\Oc3cc(O)cc(O)c3C2=O)ccc1O ?
-- reply 1.06

-- ask Follow-up entry: O=C1/C(=C/c2ccccc2O)Oc2cc(O)ccc21
-- reply 1.07

-- ask Quick one: O=C1/C(=C/c2cccc(O)c2)Oc2cc(O)ccc21
-- reply 1.08

-- ask Same thing, different compound: COc1cc(OC)c2c(c1)O/C(=C\c1ccncc1)C2=O
-- reply 1.73

-- ask What would you report for COc1cc(OC)c2c(c1)OC(=O)/C2=C\c1ccccc1OC ?
-- reply 1.03

-- ask Next record, please: COc1cc(OC)c2c(c1)OC(=O)/C2=C\c1ccccc1
-- reply 1.04

-- ask Repeat with O=C1/C(=C/c2ccc(O)cc2)Oc2cc(O)cc(O)c21
-- reply 1.05

-- ask Try this compound too: COc1cc(OC)c2c(c1)O/C(=C\c1cccc(O)c1)C2=O
-- reply 1.16

-- ask Could you do the same for COc1ccccc1/C=C1\Oc2ccc(O)cc2C1=O , please?
-- reply 1.68

* * *

Test: Cytotoxicity against mouse Hepa-1c1c7 cells assessed as cell survival at 5 uM after 48 hrs by MTT assay
Type: cell-based
Conditions: read-out: Activity
Please go through the items and note down their viability at 48 h, 5 µM.
Express it in %; write the number only.

-- ask Quick check: viability at 48 h, 5 µM of O=C1/C(=C/c2cccc(Cl)c2)Oc2cc(O)ccc21 ?
-- reply 111

-- ask Entry to check: COc1cc(OC)c2c(c1)O/C(=C\c1cccc(O)c1)C2=O
-- reply 104

-- ask Now consider COc1ccc(/C=C2\C(=O)Oc3ccc(O)cc32)cc1 and answer again.
-- reply 110

-- ask Would you kindly repeat that for O=C1/C(=C/c2ccccc2Cl)Oc2cc(O)ccc21 ?
-- reply 120

-- ask How about this compound: Cc1ccc(/C=C2\Oc3cc(O)cc(O)c3C2=O)cc1
-- reply 103

-- ask Next: Cc1ccc(/C=C2\Oc3cc(O)ccc3C2=O)cc1
-- reply 98

-- ask Would you mind doing O=C1Oc2ccc(O)cc2/C1=C/c1cccc(O)c1 as well?
-- reply 95

-- ask Thanks! And O=C1Oc2ccc(O)cc2/C1=C/c1ccccc1O ?
-- reply 115

-- ask Try this compound next: O=C1/C(=C/c2cccc(Cl)c2)Oc2cc(O)cc(O)c21
-- reply 96

-- ask Can you handle O=C1Oc2ccc(O)cc2/C1=C/c1ccccc1 next?
-- reply 89

-- ask What do we get for COc1cc(OC)c2c(c1)O/C(=C\c1ccc(C(F)(F)F)cc1)C2=O ?
-- reply 90

-- ask Now try O=C1/C(=C/c2ccccc2)Oc2cc(O)cc(O)c21 .
-- reply 110

-- ask Try this compound next: O=C1Oc2ccc(O)cc2/C1=C/c1ccccc1Cl
-- reply 93

-- ask Now consider COc1ccccc1/C=C1\Oc2ccc(O)cc2C1=O and answer again.
-- reply 97

-- ask Next compound up: COc1cc(OC)c2c(c1)O/C(=C\c1cnc3ccccc3c1)C2=O
-- reply 93

-- ask Continue with COc1cccc(/C=C2\Oc3ccc(O)cc3C2=O)c1
-- reply 104

-- ask Then what about the compound O=C1/C(=C/c2ccccc2Cl)Oc2ccc(O)cc21 ?
-- reply 98

-- ask Quick one: COc1cc(OC)c2c(c1)OC(Cc1ccccc1)C2=O (centres undefined)
-- reply 95

-- ask Lookup COc1cc(OC)c2c(c1)OC(=O)/C2=C\c1ccccc1
-- reply 100

-- ask What about O=C1/C(=C/c2ccc(Cl)cc2)Oc2cc(O)ccc21 [6-HYDROXY-4'-CHLORO AURONE] ?
-- reply 120

-- ask And COc1cc(/C=C2\Oc3cc(O)cc(O)c3C2=O)ccc1O ?
-- reply 97

-- ask Next: COc1cc(OC)c2c(c1)O/C(=C\c1ccccc1OC)C2=O
-- reply 82

-- ask Could you do the same for O=C1/C(=C/c2cccc(O)c2)Oc2cc(O)cc(O)c21 , please?
-- reply 111

-- ask Next record, please: COc1ccc(/C=C2\Oc3cc(OC)cc(OC)c3C2=O)cc1 [4,4',6-TRIMETHOXY-AURONE]
-- reply 93
